# Tested on: HIV-1 IIIb
# assay_procedure: p24 production by HIV-1 IIIb infected PHA-stimulated PBMCs, Greco interaction model
# Format: cell-based
# measurement_parameters: Human immunodeficiency virus 1, IIIB, PBMC, 168 h, HIV IIIb in PBMCs, p24 day 7, Greco model estimate; read-out: IC50 abacavir
pIC50: −log10 of the molar value.
experimental_endpoint: pIC50

[[record]]
compound = "Nc1nc(NC2CC2)c2ncn([C@H]3C=C[C@@H](CO)C3)c2n1 [abacavir]"
recorded_result = 6.20


---

# Test system: HIV-1 IIIb
# assay_procedure: p24 production by HIV-1 IIIb infected PHA-stimulated PBMCs, Greco interaction model
# Format: cell-based
# measurement_parameters: Human immunodeficiency virus 1, IIIB, PBMC, 168 h, HIV IIIb in PBMCs, p24 day 7, Greco model estimate; read-out: IC50 MA
# Experimental: Primary PBMCs were separated from whole blood of HIV seronegative donors by density centrifugation over Ficoll-Hypaque (Sigma). […] Additive antiviral effect was analyzed according to the definition of Loewe, using the interaction model of Greco et al. as was described above. […] The interaction of abacavir and MA in the suppression of HIV IIIb replication in PBMCs was analyzed using the Greco model as described above. Each data point was determined in triplicate. […]
pIC50: −log10 of the molar value.
experimental_endpoint: pIC50

[[record]]
query_smiles = "COc1c(C)c2c(c(O)c1C/C=C(\\C)CCC(=O)OCCN1CCOCC1)C(=O)OC2"
recorded_result = 7.00

